Ref: patent US20150353495A1

# assaySystem: JAK1 (Homo sapiens, UniProt P23458)
# Construct: 5 μl of catalytic domain recombinant Kinase enzyme+Tyr peptide substrate (Invitrogen, CA)
# Sequence (P23458 875-1153 limits assumed): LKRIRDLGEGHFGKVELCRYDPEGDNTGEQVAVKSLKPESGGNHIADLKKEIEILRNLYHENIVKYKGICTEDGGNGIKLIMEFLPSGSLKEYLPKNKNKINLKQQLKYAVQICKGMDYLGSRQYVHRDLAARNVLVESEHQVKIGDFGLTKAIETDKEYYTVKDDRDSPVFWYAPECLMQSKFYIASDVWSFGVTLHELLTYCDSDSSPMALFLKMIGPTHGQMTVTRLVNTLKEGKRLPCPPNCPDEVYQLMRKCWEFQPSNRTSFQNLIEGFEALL
# testDetails: Z'-LYTE kinase assay JAK1
pIC50: −log10 of the molar value.
parameter: pIC50

# compoundStructure, assaySystem, pIC50
measured = [
    ("CC(=O)N1CCN(c2ccc(Nc3cc(NCc4ccc(F)cc4F)c(C(N)=O)cn3)cc2)CC1", "JAK1 (Homo sapiens, UniProt P23458)", "< 6.00"),
]

Name the recorded pIC50 for NC(=O)c1cnc(Nc2ccc(-c3c[nH]cn3)cc2)cc1NCc1ccccc1 .
6.00 to 7.00

Now consider N#CCOc1ccc(Nc2cc(NCc3ccccc3)c(C(N)=O)cn2)cc1 and answer again.
6.00 to 7.00

Now consider NC(=O)c1cnc(Nc2ccc(OC(F)F)cc2)cc1NCc1cncc(F)c1 and answer again.
< 6.00

Now consider CC(=O)N(C)c1ccc(Nc2cc(NCc3cccc4cc[nH]c34)c(C(N)=O)cn2)cc1 and answer again.
< 6.00

Now consider NC(=O)c1cnc(Nc2ccc(C3CCOCC3)cc2)cc1NCC1(O)CCCC1 and answer again.
< 6.00

Now consider COc1ccc(Nc2cc(Nc3ccc(OC)cc3)c(C(N)=O)cn2)cc1 and answer again.
< 6.00

---

Consider the following compounds and their measured IC50 readings.
# assaySystem: JAK3 (Homo sapiens, UniProt P52333)
# Construct: 5 μl of catalytic domain recombinant Kinase enzyme+Tyr peptide substrate (Invitrogen, CA)
# Sequence (P52333 822-1111 limits assumed): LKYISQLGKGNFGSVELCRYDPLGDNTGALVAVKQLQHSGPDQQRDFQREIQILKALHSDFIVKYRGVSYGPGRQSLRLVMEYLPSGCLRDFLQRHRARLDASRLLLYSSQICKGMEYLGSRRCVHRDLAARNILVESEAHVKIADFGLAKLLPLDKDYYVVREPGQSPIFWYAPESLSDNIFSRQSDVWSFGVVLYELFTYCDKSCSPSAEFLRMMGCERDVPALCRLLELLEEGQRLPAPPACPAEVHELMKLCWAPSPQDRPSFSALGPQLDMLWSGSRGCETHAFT
# testDetails: Z'-LYTE kinase assay JAK3

# compoundStructure, IC50
data = [
    ("CC(C)c1cccc(Nc2cc(NCc3ccccc3F)c(C(N)=O)cn2)c1", "100 to 1000 nM"),
    ("NC(=O)c1cnc(Nc2cccc(C(=O)N3CCC3)c2)cc1NCc1ccccc1", "10 to 100 nM"),
    ("COc1ccc(Nc2cc(NC[C@H]3CCCN(S(C)(=O)=O)C3)c(C(N)=O)cn2)cc1", "10 to 100 nM"),
    ("Cc1cc(Nc2cc(NCc3cccc(F)c3F)c(C(N)=O)cn2)ccc1C(=O)N1CCC1", "< 1 nM"),
    ("Cn1c(CNc2cc(Nc3ccc(C4CCOCC4)cc3)ncc2C(N)=O)nc2ccccc21", "> 1000 nM"),
]

Name the recorded IC50 for NC(=O)c1cnc(Nc2ccc(N3CCCCC3=O)cc2)cc1NCc1cc(F)ccc1F .
1 to 10 nM

Now consider CS(=O)(=O)N1CCC(Nc2cc(Nc3ccc(C4CCOCC4)cc3)ncc2C(N)=O)CC1 and answer again.
100 to 1000 nM

---

# assaySystem: JAK3 (Homo sapiens, UniProt P52333)
# Construct: 5 μl of catalytic domain recombinant Kinase enzyme+Tyr peptide substrate (Invitrogen, CA)
# testDetails: Z'-LYTE kinase assay JAK3
pIC50: −log10 of the molar value.
Consider the following compounds and their measured pIC50 readings.

Sample answers from the record:
# compoundStructure, assaySystem, readoutValue
data = [
    ("CN(CC(F)(F)F)C(=O)c1ccc(Nc2cc(NCc3cncc(F)c3)c(C(N)=O)cn2)cc1", "JAK3 (Homo sapiens, UniProt P52333)", "7.00 to 8.00"),
    ("CC(=O)N1CCN(c2ccc(Nc3cc(NCC4CCC4)c(C(N)=O)cn3)cc2)CC1", "JAK3 (Homo sapiens, UniProt P52333)", "7.00 to 8.00"),
]

# returns recorded pIC50 (system: JAK3 (Homo sapiens, UniProt P52333)) for CCC(=O)N1CCC(c2ccc(Nc3cc(NCc4cccc5ccsc45)c(C(N)=O)cn3)cc2)CC1
8.00 to 9.00

Now consider Cc1cc(Nc2cc(NCc3cccc4[nH]ccc34)c(C(N)=O)cn2)ccc1C(=O)N1CCC1 and answer again.
> 9.00

Now consider NC(=O)c1cnc(Nc2cccc(N3CCOCC3)c2)cc1NCc1ccccc1 and answer again.
8.00 to 9.00

Now consider Cc1cccc(Nc2cc(Nc3ccc(OCCN4CCCC4)cc3)ncc2C(N)=O)c1 and answer again.
6.00 to 7.00

Now consider NC(=O)c1cnc(Nc2ccc(OCCN3CCCC3)cc2)cc1NCc1ccccc1 and answer again.
8.00 to 9.00

Now consider COCCOc1ccc(Nc2cc(NCc3ccccc3)c(C(N)=O)cn2)cc1 and answer again.
7.00 to 8.00

Now consider CC(=O)N1CCC(CNc2cc(Nc3ccc(C(=O)N4CCCC4)cc3)ncc2C(N)=O)CC1 and answer again.
6.00 to 7.00

Now consider CCS(=O)(=O)N1CCC[C@H](CNc2cc(Nc3ccc(OC)cc3)ncc2C(N)=O)C1 and answer again.
7.00 to 8.00

Now consider NC(=O)c1cnc(Nc2ccc(CC(=O)NCC(F)(F)F)cc2)cc1NCc1ccccc1 and answer again.
8.00 to 9.00

Now consider COC(=O)N1CCC[C@@H](CNc2cc(Nc3ccc(OC)cc3)ncc2C(N)=O)C1 and answer again.
6.00 to 7.00

Now consider N#CCN1CCC(c2ccc(Nc3cc(NCc4cc(F)ccc4F)c(C(N)=O)cn3)cc2)CC1 and answer again.
8.00 to 9.00

---

Consider the following compounds and their measured IC50 readings.
# assaySystem: JAK3 (Homo sapiens)
# Construct: 5 μl of catalytic domain recombinant Kinase enzyme+Tyr peptide substrate (Invitrogen, CA)
# testDetails: Z'-LYTE kinase assay JAK3

# compoundStructure, IC50
data = [
    ("CCC(=O)N1CC(c2ccc(Nc3cc(NCc4cccc5ccsc45)c(C(N)=O)cn3)cc2)C1", "0.001 to 0.01 µM"),
]

Name the recorded IC50 for CCC(=O)N1CCC(c2ccc(Nc3cc(NCC4CCCCC4)c(C(N)=O)cn3)cc2)CC1 .
0.01 to 0.1 µM

Now consider NC(=O)c1cnc(Nc2ccc(C3CCOCC3)cc2)cc1NCC1CCOCC1 and answer again.
0.1 to 1 µM

Now consider COc1ccc(Nc2cc(NCC3CCCC3)c(C(N)=O)cn2)cc1 and answer again.
0.1 to 1 µM

Now consider COc1ccc(Nc2cc(Nc3ccc(N4CCOCC4)cc3)c(C(N)=O)cn2)cc1 and answer again.
0.1 to 1 µM

Now consider CC(=O)Nc1cccc(Nc2nc(N)c(C(N)=O)cc2F)c1 and answer again.
> 1 µM

Now consider Cc1cc(Nc2cc(NCc3ccccc3)c(C(N)=O)cn2)ccc1C(=O)N1CCCC1 and answer again.
0.001 to 0.01 µM

Now consider CN(C)S(=O)(=O)N(C)c1ccc(Nc2cc(NCc3ccccc3)c(C(N)=O)cn2)cc1 and answer again.
0.01 to 0.1 µM

Now consider NC(=O)c1cnc(Nc2cccc(OCC(=O)N3CCOCC3)c2)cc1NCc1ccccc1 and answer again.
0.001 to 0.01 µM

Now consider CC(=O)N(C)c1ccc(Nc2cc(NCc3cncc(F)c3)c(C(N)=O)cn2)cc1 and answer again.
0.01 to 0.1 µM

Now consider NC(=O)c1cnc(Nc2ccc(C(F)(F)F)cc2)cc1NCc1cncc(F)c1 and answer again.
0.1 to 1 µM

Now consider CC(=O)N1CCN(c2ccc(Nc3cc(N[C@H](C)c4ccccc4)c(C(N)=O)cn3)cc2)CC1 and answer again.
0.001 to 0.01 µM

Now consider CN(C)S(=O)(=O)N1CC(c2ccc(Nc3cc(NCc4ccccc4)c(C(N)=O)cn3)cc2)C1 and answer again.
0.01 to 0.1 µM

Now consider CCC(=O)N1CCC[C@H](CNc2cc(Nc3ccc(OC)cc3)ncc2C(N)=O)C1 and answer again.
0.01 to 0.1 µM

---

# System: JAK1/3 signaling to STAT6 in Ramos B cells
# testDetails: IL4 stimulation of JAK1/3 signaling to STAT6 in Ramos B cells (pSTAT6 Y641, FACS)
# Assay type: cell-based
# conditionDescription: Homo sapiens, 1.0 uM compound, read-out: IL-4/STAT6 in Ramos Percent Inhibition at 1.0 uM
Consider the following molecules and their measured inhibition at 1 µM readings.
Please give a number only; it is taken to be in %.

Sample answers from the record:
# molecule, assaySystem, resultUnits, inhibition at 1 µM
data = [
    ("CCS(=O)(=O)N1CCC(c2ccc(Nc3cc(NCc4ccccc4F)c(C(N)=O)cn3)cc2)CC1", "JAK1/3 signaling to STAT6 in Ramos B cells", "%", 42),
    ("CC(=O)N1CCN(c2ccc(Nc3cc(NC(CO)c4ccccc4)c(C(N)=O)cn3)cc2)CC1 (stereo not drawn)", "JAK1/3 signaling to STAT6 in Ramos B cells", "%", 16),
    ("NC(=O)c1cnc(Nc2ccc(OCCN3CCCC3)cc2)cc1NCc1ccccc1", "JAK1/3 signaling to STAT6 in Ramos B cells", "%", 46),
]

Now let's try a different one.
Name the recorded inhibition at 1 µM for COc1ccc(Nc2cc(NCc3ccccc3)c(C(N)=O)cn2)cc1 .
11
